Every entry's value here was drawn from ChEMBL document CHEMBL1148414.

Quick reference for Ki among some molecules
# Subject Of Test: Cytochrome P450 2C9 (Homo sapiens, UniProt P11712)
# Sequence (P11712 whole entry): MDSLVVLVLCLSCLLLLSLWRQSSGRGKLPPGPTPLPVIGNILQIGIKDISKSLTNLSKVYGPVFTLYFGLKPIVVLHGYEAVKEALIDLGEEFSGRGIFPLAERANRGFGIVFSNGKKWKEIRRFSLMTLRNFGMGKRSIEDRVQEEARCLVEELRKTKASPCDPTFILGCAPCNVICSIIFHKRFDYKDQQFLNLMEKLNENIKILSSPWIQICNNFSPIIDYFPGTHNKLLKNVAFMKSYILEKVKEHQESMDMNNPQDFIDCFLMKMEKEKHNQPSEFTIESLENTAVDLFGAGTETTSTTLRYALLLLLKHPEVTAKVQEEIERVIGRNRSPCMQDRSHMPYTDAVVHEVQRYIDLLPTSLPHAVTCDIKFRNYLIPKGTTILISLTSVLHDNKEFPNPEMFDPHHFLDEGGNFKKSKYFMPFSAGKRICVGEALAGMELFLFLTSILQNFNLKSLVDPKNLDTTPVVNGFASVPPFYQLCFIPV
Quantity Kind: Ki (µM)

- Molecule: "COCCCOc1ccnc(C[S@+]([O-])c2nc3ccccc3[nH]2)c1C"
  Value Reported: 37
- Molecule: "COc1ccc2[nH]c([S+]([O-])Cc3ncc(C)c(OC)c3C)nc2c1 (centres undefined)"
  Value Reported: 45
- Molecule: "Clc1ccc(CO[C@H](Cn2ccnc2)c2ccc(Cl)cc2Cl)c(Cl)c1"
  Value Reported: 6
- Molecule: "COCCCOc1ccnc(C[S@@+]([O-])c2nc3ccccc3[nH]2)c1C"
  Value Reported: 36
